Provide the recorded pEC50 for the entries that follow.
Experimental target: Glucose-dependent insulinotropic receptor (Homo sapiens, UniProt Q8TDV5)
Sequence (Q8TDV5 whole entry): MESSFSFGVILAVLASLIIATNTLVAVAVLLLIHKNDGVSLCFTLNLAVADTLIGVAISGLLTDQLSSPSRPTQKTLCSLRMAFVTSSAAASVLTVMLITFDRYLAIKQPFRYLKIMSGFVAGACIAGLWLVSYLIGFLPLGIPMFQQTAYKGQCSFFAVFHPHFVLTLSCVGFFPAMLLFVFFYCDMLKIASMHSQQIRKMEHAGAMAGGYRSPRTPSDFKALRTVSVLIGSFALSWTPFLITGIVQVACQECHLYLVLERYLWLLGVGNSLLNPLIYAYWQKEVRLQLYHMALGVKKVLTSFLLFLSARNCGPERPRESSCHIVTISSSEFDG
Method description: Agonist activity at human GPR119 expressed in HEK293 cells assessed as increase in cAMP stimulation measured after 60 mins by TR-FRET assay
pEC50: −log10 of the molar value.

Task: Given the entry CC(C)(C)OC(=O)N1CC2CCC1CC2Oc1ncnc(Nc2ccc(S(C)(=O)=O)cc2)c1[N+](=O)[O-] (stereo in doubt; 27p) , report its measured pEC50.
Output: < 5.00

Task: Given the entry CC(C)(C)OC(=O)N1CC2CC1CC2Nc1ncnc(Nc2ccc(S(C)(=O)=O)cc2F)c1[N+](=O)[O-] (stereo in doubt; 27k) , report its measured pEC50.
Output: < 5.00

Task: Given the entry CC(C)(C)OC(=O)N1CC2CCC1CC2Nc1ncnc(Nc2ccc(S(C)(=O)=O)cc2)c1[N+](=O)[O-] (stereo in doubt; 27r) , report its measured pEC50.
Output: 8.25

Task: Given the entry CC(C)(C)OC(=O)N1CC2CC1CC2Nc1ncnc(Nc2ccc(S(C)(=O)=O)cc2)c1[N+](=O)[O-] (stereo in doubt; 27l) , report its measured pEC50.
Output: < 5.00

Task: Given the entry CC(C)(C)OC(=O)N1CC2CCC1CC2Oc1ncnc(Nc2ccc(S(C)(=O)=O)cc2F)c1[N+](=O)[O-] (configuration not stated) , report its measured pEC50.
Output: < 5.00

Task: Given the entry CC(C)(C)OC(=O)N1CC2CC(Nc3ncnc(Nc4ccc(S(C)(=O)=O)cc4)c3[N+](=O)[O-])C1C2 (stereo in doubt; 27h) , report its measured pEC50.
Output: < 5.00

Task: Given the entry CC(C)(C)OC(=O)N1CC2CC(Nc3ncnc(Nc4ccc(S(C)(=O)=O)cc4)c3[N+](=O)[O-])C1C2 (stereo in doubt; 27f) , report its measured pEC50.
Output: < 6.00

// data source = ChEMBL document CHEMBL4017468
